// data source = PubChem BioAssay (NCI)

# Tested on: SN12C renal
# protocol-description: NCI tumour cell line growth inhibition, 48 h; in the data active = GI50 below about 0.43 µM; inactive = the rest
A correct response names exactly one class from 1 = active, -1 = inactive

Take a look at these entries with their results.
>  <compound>
NS(=O)(=O)CC1CC[CH-]CC1.[Cl-].[Cl-].[Cl-].[Cl-].[Cl-].[Sb+5].c1ccncc1

>  <label>
-1

$$$$
>  <compound>
CC(=O)[CH-]C(=O)c1ccccc1.CC(=O)[CH-]C(=O)c1ccccc1.Cc1cc([O-])ccc1Cl.Cc1cc([O-])ccc1Cl.[Ti+4]

>  <label>
-1

$$$$

Q. State the result this test recorded for NS(=O)(=O)NCCNc1nonc1C(=Nc1ccc(F)c(Br)c1)NO .
A. -1

Q. State the result this test recorded for CC1(C)NCCC[C@]2(C)[C@H]3CC[C@@H]4[C@H]5[C@H](C(=O)/C=C/c6ccccn6)CC[C@]5(CO)CC[C@@]4(C)[C@]3(C)CC[C@@H]12 .
A. -1

Q. State the result this test recorded for C/C(O)=C(\C#N)C(=O)Nc1ccc(C(F)(F)F)cc1 .
A. -1

Q. State the result this test recorded for CN(CC(=O)Nc1nc2ccccc2[nH]1)S(=O)(=O)c1ccc(Cl)cc1 .
A. -1

Q. State the result this test recorded for CCCCCCCCCNC(=O)/C=C/c1ccc(O)c(O)c1 .
A. -1

Q. State the result this test recorded for NS(=O)(=O)c1ccc(N(/C=C/C(=O)C(F)(F)F)Cc2ccc(Cl)cc2)cc1 .
A. -1

Q. State the result this test recorded for CC1(N)CCN(c2cnc(-c3cccc(Cl)c3Cl)c(N)n2)CC1 .
A. -1

====

# System: RPMI-8226 leukemia
# protocol-description: NCI tumour cell line growth inhibition, 48 h
recorded-endpoint: TGI

# count of solved cases: 8
>  <compound>
COC1(OC)C=CC2C1C1C=CC2C1(OC)OC (configuration not stated)

>  <measured-target>
RPMI-8226 leukemia

>  <TGI>
> 100 µM

$$$$
>  <compound>
CC(C)(C)OC(=O)NCCCC(=O)NC1(c2cc3ccccc3s2)CCCCC1

>  <measured-target>
RPMI-8226 leukemia

>  <TGI>
29.6 µM

$$$$
>  <compound>
N#Cc1c(N)nc(N2CCOCC2)c(C#N)c1-c1ccccn1

>  <measured-target>
RPMI-8226 leukemia

>  <TGI>
> 100 µM

$$$$
>  <compound>
C/C(O)=C(\C#N)C(=O)Nc1ccc(C(F)(F)F)cc1

>  <measured-target>
RPMI-8226 leukemia

>  <TGI>
> 100 µM

$$$$
>  <compound>
CCOC(=O)c1c(C)n([O-])c2cc(Cl)c(Cl)cc2[n+]1=O

>  <measured-target>
RPMI-8226 leukemia

>  <TGI>
34.9 µM

$$$$
>  <compound>
O=C(CCc1ccccc1)n1cccc1CO

>  <measured-target>
RPMI-8226 leukemia

>  <TGI>
> 100 µM

$$$$
>  <compound>
CN(C)c1ccc(/C=C2\N=C(N/N=C/c3ccccc3O)NC2=O)cc1

>  <measured-target>
RPMI-8226 leukemia

>  <TGI>
> 100 µM

$$$$
>  <compound>
CC1(C)N=C(N)N=C(N)N1c1cccc(C(=O)Nc2ccc(S(=O)(=O)F)cc2)c1

>  <measured-target>
RPMI-8226 leukemia

>  <TGI>
> 100 µM

$$$$

Q. Supply measured TGI of O=C1c2c(ccc3c2CCC3)CC12Cc1ccccc1C2 in your reply.
A. 44.3 µM

Q. Supply measured TGI of COC(=O)C(COC(=O)/C=C/c1ccc(OC(C)=O)c(OC(C)=O)c1)NC(=O)/C=C/c1ccc(OC(C)=O)c(OC(C)=O)c1 (configuration not stated) in your reply.
A. > 100 µM

Q. Supply measured TGI of CSC1=NNC(SC)=NN1 in your reply.
A. > 1 µM

Q. Supply measured TGI of O=c1cc(-c2ccco2)[nH]c2cc3c(cc12)OCO3 in your reply.
A. > 100 µM

Q. Supply measured TGI of CC1(N)CCN(c2cnc(-c3cccc(Cl)c3Cl)c(N)n2)CC1 in your reply.
A. 40.1 µM

Q. Supply measured TGI of O=C1C=CC(=O)N1c1cccc(N2C(=O)C=CC2=O)c1 in your reply.
A. 7.19 µM
